System: Enterococcus faecalis
Experiment: Antibacterial activity against Streptococcus faecalis by broth micro-dilution technique
Format: functional
MIC values, listed per item
API: value field is a number in mg/L; no unit string.

Here are 2 molecules together with their reported answers.
- LINE_NOTATION: "O=c1cc(-c2ccc(O)c(O)c2)oc2cc(O)cc(O)c12"
  STUDY_SYSTEM: "Enterococcus faecalis"
  U: "mg/L"
  MIC: 25
- LINE_NOTATION: "O=c1cc(-c2ccc(O)c(O)c2)oc2cc(O)c([C@@H]3O[C@H](CO)[C@@H](O)[C@H](O)[C@H]3O)c(O)c12"
  STUDY_SYSTEM: "Enterococcus faecalis"
  U: "mg/L"
  MIC: 25

// query Would you mind telling me what MIC value was observed for `CC1(C)S[C@@H]2[C@H](NC(=O)[C@H](N)c3ccccc3)C(=O)N2[C@H]1C(=O)O` ?
// result 0.02
